Test summary: AUC in Wistar rat at 10 mg/kg, po
Format: ADME, organism-based
Design: dose 10 mg/kg, route oral
Reported conditions: plasma
Parameter: AUC (µM·h)
Supply the numeric figure in µM·h, leaving out any unit text.

## Task Given the entry FC(F)(F)c1ccccc1-c1ccc2[nH]ncc2c1 , report its measured AUC.
## Result 15.7

----------
System under test: Transient receptor potential cation channel subfamily V member 3 (Homo sapiens) (UniProt Q8NET8)
Sequence (whole entry): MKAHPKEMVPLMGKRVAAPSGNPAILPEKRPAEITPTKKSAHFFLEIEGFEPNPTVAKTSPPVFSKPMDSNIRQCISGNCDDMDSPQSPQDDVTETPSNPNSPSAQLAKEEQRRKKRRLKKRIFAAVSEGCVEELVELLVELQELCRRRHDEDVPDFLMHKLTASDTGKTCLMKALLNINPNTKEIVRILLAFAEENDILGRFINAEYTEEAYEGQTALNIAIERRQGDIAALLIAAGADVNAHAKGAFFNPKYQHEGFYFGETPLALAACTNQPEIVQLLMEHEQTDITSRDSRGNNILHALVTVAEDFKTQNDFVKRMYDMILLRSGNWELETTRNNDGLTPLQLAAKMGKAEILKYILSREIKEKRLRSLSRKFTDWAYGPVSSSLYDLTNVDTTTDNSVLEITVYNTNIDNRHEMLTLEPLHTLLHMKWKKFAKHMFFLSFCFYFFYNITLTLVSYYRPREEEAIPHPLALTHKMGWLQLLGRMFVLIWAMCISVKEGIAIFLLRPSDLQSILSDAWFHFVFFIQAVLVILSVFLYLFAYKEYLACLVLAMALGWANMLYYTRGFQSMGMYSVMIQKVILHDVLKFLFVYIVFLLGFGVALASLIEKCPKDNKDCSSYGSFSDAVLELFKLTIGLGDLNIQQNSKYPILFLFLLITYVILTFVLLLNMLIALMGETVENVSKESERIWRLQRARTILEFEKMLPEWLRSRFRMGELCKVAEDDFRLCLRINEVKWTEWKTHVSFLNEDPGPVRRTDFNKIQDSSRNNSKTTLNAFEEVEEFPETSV
Test summary: Antagonist activity at human TRPV3 expressed in CHOK1 cells assessed as inhibition of 2-APB-induced calcium flux incubated 10 mins prior to 2-APB addition by FLIPR assay relative to control
Type: cell-based
Design: concentration or dose not given beside the values
Reported conditions: CHO-K1
Parameter: inhibition (%)
Supply the numeric figure in %, leaving out any unit text.

Study these solved cases before continuing.
- FC(F)(F)Oc1cc2[nH]ncc2cc1-c1ccccc1C(F)(F)F: 22
- COc1cc2[nH]ncc2cc1-c1ccccc1C(F)(F)F: 35
- FC(F)(F)c1ccccc1-c1cc2cn[nH]c2cc1Cl: 0
- FC(F)(F)c1ccccc1-c1ccc2[nH]ncc2c1: 10
- Cc1cc2[nH]ncc2cc1-c1ccccc1C(F)(F)F: 0

Proceed to the following item.
## Task Given the entry FC(F)(F)c1ccccc1-c1cc2cn[nH]c2cc1OCC1CC1 , report its measured inhibition.
## Result 5

----------
Overview of recorded clearance for various molecules
Test summary: Clearance in Wistar rat at 3 mg/kg, iv
Type: ADME, organism-based
Set-up: dose 3 mg/kg, route intravenous
Reported conditions: in vivo
Supply the numeric figure in mL/min/kg, leaving out any unit text.

- FC(F)(F)c1ccccc1-c1cc2cn[nH]c2cc1OCC1CC1: 50
- FC(F)(F)c1ccccc1-c1cc2cn[nH]c2cc1Cl: 13.6

Proceed to the following item.
## Task Given the entry FC(F)(F)c1ccccc1-c1ccc2[nH]ncc2c1 , report its measured clearance.
## Result 14.7
